Target: CDK9 (Homo sapiens)
Construct: endogenous in cells; host or cells: MDA-MB-231
Sequence (P50750 whole entry): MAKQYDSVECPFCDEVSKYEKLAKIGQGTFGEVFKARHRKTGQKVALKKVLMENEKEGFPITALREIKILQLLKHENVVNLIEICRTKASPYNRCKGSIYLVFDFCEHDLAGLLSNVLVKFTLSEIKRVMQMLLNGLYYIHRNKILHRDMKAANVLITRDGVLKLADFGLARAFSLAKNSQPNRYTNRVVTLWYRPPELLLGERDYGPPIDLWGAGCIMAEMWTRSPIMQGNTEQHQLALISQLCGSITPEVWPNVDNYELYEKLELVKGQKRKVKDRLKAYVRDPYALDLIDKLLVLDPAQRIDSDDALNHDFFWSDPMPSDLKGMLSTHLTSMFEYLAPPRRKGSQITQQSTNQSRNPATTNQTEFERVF
Test: CDK protein degradation activity (Western blotting), CDK9
Assay type: cell-based
Conditions: MDA-MB-231 cells, 1 μM, 16 hours, Western blot
reported.metric: Enzyme degradation CDK9 (% remaining) @ 1 μM

- molecule: "N#Cc1cccc(C(=O)NC2CC(n3cnc4c(Nc5ccc(N6CCN(CC7CCN(c8ccc9c(c8)C(=O)N([C@H]8CCC(=O)NC8=O)C9=O)CC7)CC6)cc5)ncnc43)C2)n1 (some centres unmarked) [Compound 392]"
  result: "0/0/0%"
- molecule: "N#Cc1cccc(C(=O)NC2CC(n3cnc4c(Nc5ccc(N6CCN(CC7CCN(C(=O)C8CCN(c9cc%10c(cc9F)C(=O)N([C@H]9CCC(=O)NC9=O)C%10=O)CC8)CC7)CC6)cc5)ncnc43)C2)n1 (some centres unmarked) [Compound 472]"
  result: "0/0/0%"
- molecule: "Cc1cccc(C(=O)N[C@H]2C[C@@H](n3cnc4c(NCc5ccc(N6CCN(C(=O)CNc7ccc8c(c7)C(=O)N([C@H]7CCC(=O)NC7=O)C8=O)CC6)cc5)ncnc43)C2)n1 [Compound 149]"
  result: "0/0/0%"
- molecule: "O=C1CCC(N2C(=O)c3cc(F)c(N4CCC(C(=O)N5CCC(CCN6CCN(c7ccc(Nc8ncnc9c8ncn9[C@H]8C[C@@H](NC(=O)c9c(Cl)cccc9Cl)C8)cc7)CC6)CC5)CC4)cc3C2=O)C(=O)N1 (some centres unmarked) [Compound 463]"
  result: "0/0/0%"
- molecule: "Cc1cccc(C(=O)NC2CC(n3cnc4c(Nc5ccc(N6CCN(CC7CCN(c8ccc9nnn([C@H]%10CCC(=O)NC%10=O)c(=O)c9c8)CC7)CC6)cc5)ncnc43)C2)n1 (some centres unmarked) [Compound 378]"
  result: "0/0/0%"
- molecule: "O=C1CC[C@H](n2nnc3ccc(N4CCC(CN5CCN(c6ccc(Nc7ncnc8c7ncn8C7CC(NC(=O)c8cccc(Cl)n8)C7)cc6)CC5)CC4)cc3c2=O)C(=O)N1 (some centres unmarked) [Compound 417]"
  result: "10/10/10%"
- molecule: "Cc1cccc(C(=O)NC2CC(n3cnc4c(Nc5ccc(N6CCN(CC7CCN(c8cccc9c8C(=O)N([C@H]8CCC(=O)NC8=O)C9=O)CC7)CC6)cc5)ncnc43)C2)n1 (some centres unmarked) [Compound 89]"
  result: "0%"
- molecule: "O=C1CC[C@H](N2C(=O)c3ccc(OCC(=O)N4CCN(CCCN5CCN(c6ccc(Nc7ncnc8c7ncn8[C@H]7C[C@@H](NC(=O)Cc8ccccc8)C7)cc6)CC5)CC4)cc3C2=O)C(=O)N1 [Compound 234]"
  result: "40%"
- molecule: "O=C1CC[C@H](n2nnc3ccc(N4CCN(CC5CCN(c6ccc(Nc7ncnc8c7ncn8C7CC(NC(=O)c8c(Cl)cccc8Cl)C7)cc6)CC5)CC4)cc3c2=O)C(=O)N1 (some centres unmarked) [Compound 370]"
  result: "0/0/0%"
- molecule: "O=C1CCN(c2coc3cc(C(=O)N4CCC(CC(=O)N5CCN(c6ccc(Nc7ncnc8c7ncn8[C@H]7C[C@@H](NC(=O)Cc8ccccc8)C7)cc6)CC5)CC4)ccc23)C(=O)N1 [Compound 195]"
  result: "10%"
- molecule: "O=C1CCC(N2C(=O)c3ccc(N4CCC(CN5CCN(c6ccc(Nc7ncnc8c7ncn8[C@H]7C[C@@H](NC(=O)c8cccc(Cl)n8)C7)cc6)CC5)CC4)cc3C2=O)C(=O)N1 (some centres unmarked) [Compound 391]"
  result: "0/0/0%"
